The reported measurements were obtained from paper PMC11665415.

- Test Details: Snapshot/standard pharmacokinetics in CD-1 mice
- Format: in vivo, mouse
- Run Parameters: male, CD-1, mouse, plasma, po, 30 mg/kg
Value Kind: half-life (h)
The answer is to be given in h; state only the numeric part.

I have this compound here, CN(C)CC#Cc1ccc2[nH]c3c(c2c1)-c1nc(N)ncc1CCC3 [SGC-PIKFYVE-1] , and I need its recorded half-life.
3.5
